Each entry below lists one item and its recorded fraction unbound value.
Assay: Unbound fraction in rat brain
Format: ADME, tissue-based

Take a look at these entries with their results.
In [3]: df
Out[3]:
                               input_smiles  test_result
0  Cc1c2c(ccc3c(NC4CN(c5cc(Cl)ncc5Cl)C4)ncnc32)nn1C        0.002
1  Cn1nnc2ccc3c(NC4CN(c5cc(Cl)ncc5Cl)C4)ncnc3c21        0.003
2  Cc1c2c(N)c(C(=O)NC3CN(c4cc(Cl)ncc4Cl)C3)ccc2nn1C        0.025
3  COc1cc(N2CC(NC(=O)c3ccc4nn(C)c(C)c4c3N)C2)c(Cl)cn1        0.011
4  COc1cc(N2CC(Nc3ncnc4c3ccc3nn(C)c(C)c34)C2)c(Cl)cn1        0.005

Task item: Fill in fraction unbound for record Cn1nnc2ccc(C(=O)NC3CN(c4cc(Cl)ncc4Cl)C3)c(N)c21
Reply: 0.033

---

Each entry below lists one item and its recorded log10(CLint scaled) value.
Assay: Intrinsic clearance in rat microsomes
Type: ADME, Microsome
All values: base-10 log of CLint scaled in mL/min/kg.

In [3]: df
Out[3]:
                               input_smiles  test_result
0  Cc1c2c(ccc3c(NC4CN(c5cc(Cl)ncc5Cl)C4)ncnc32)nn1C         2.23

Task item: Fill in log10(CLint scaled) for record Cn1nnc2ccc3c(NC4CN(c5cc(Cl)ncc5Cl)C4)ncnc3c21
Reply: 2.04

Task item: Fill in log10(CLint scaled) for record COc1cc(N2CC(NC(=O)c3ccc4nn(C)c(C)c4c3N)C2)c(Cl)cn1
Reply: 1.48

Task item: Fill in log10(CLint scaled) for record COc1cc(N2CC(Nc3ncnc4c3ccc3nn(C)c(C)c34)C2)c(Cl)cn1
Reply: 2.08

---

Assay: Intrinsic clearance in human microsomes
Format: ADME, Microsome
Kind request: treat 50 mL/min/kg as inclusive, so CLint scaled at 50 mL/min/kg or higher is true, anything lower is false.

These recorded examples may help you get a feel for the data.
                               input_smiles  group
0  Cc1c2c(ccc3c(NC4CN(c5cc(Cl)ncc5Cl)C4)ncnc32)nn1C   true
1  Cc1c2cc(C(=O)NC3CN(c4cc(Cl)ncc4Cl)C3)ccc2nn1C  false
2  Cn1nnc2ccc3c(NC4CN(c5cc(Cl)ncc5Cl)C4)ncnc3c21  false
3  COc1cc(N2CC(NC(=O)c3ccc4nn(C)c(C)c4c3N)C2)c(Cl)cn1  false
4  Cn1nnc2ccc(C(=O)NC3CN(c4cc(Cl)ncc4Cl)C3)c(N)c21  false
5  COc1cc(N2CC(Nc3ncnc4c3ccc3nn(C)c(C)c34)C2)c(Cl)cn1   true

Task item: Decide: is the reported value of CLint scaled for Cn1nnc2ccc(C(=O)NC3CN(c4cc(Cl)ncc4Cl)C3)cc21 equal to or greater than 50 mL/min/kg?
Reply: false

---

Target: Muscarinic acetylcholine receptor M4 (Homo sapiens)
Test: Positive allosteric modulation of human muscarinic M4 receptor expressed in CHO cells co-expressing Gqi5 assessed as increase in acetylcholine-induced calcium mobilization relative to acetylcholine
Format: functional, cell-based
Output: class label from %max. Mapping: 0 (below 80%), 1 (80% to below 90%), 2 (90% or more)

Task item: Kindly state the category for this molecule: Cn1nnc2ccc3c(NC4CCCC4)ncnc3c21
Reply: 0

Task item: Kindly state the category for this molecule: Cn1nnc2ccc(C(=O)NC3CN(c4ccc(F)c(F)c4)C3)c(N)c21
Reply: 2

Task item: Kindly state the category for this molecule: COc1cc(N2CC(Nc3ncnc4c3ccc3nn(C)c(C)c34)C2)c(Cl)cn1
Reply: 1
